src = the Immune Epitope Database (IEDB)

target_of_assay: HLA-A*11:01
procedure_text: IEDB peptide-MHC binding, purified MHC/competitive/fluorescence; filed as Kd, often an IC50 or EC50 that approximates it; bounds were set here for any values at or beyond the usual limits of such assays
condition_parameters: source organism: Vibrio vulnificus CMCP6
pKd: −log10 of the molar value.
readout_label: pKd

The recorded pKd for entry KQIVIINPM equals ≤ 5.30

====

Can you tell me Kd for the items I'm about to list?
target_of_assay: HLA-B*57:01
procedure_text: IEDB peptide-MHC binding, purified MHC/competitive/fluorescence; filed as Kd, often an IC50 or EC50 that approximates it; bounds were set here for any values at or beyond the usual limits of such assays
condition_parameters: source organism: Yersinia pestis Nepal516

{"sequence_input": "YADGGQWYN", "Kd": "≥ 20 µM"}

Sure, the documented Kd for ILHRLAPWI is ≥ 20 µM

====

target_of_assay: HLA-B*48:01
procedure_text: IEDB peptide-MHC binding, purified MHC/direct/fluorescence; filed as Kd, often an IC50 or EC50 that approximates it; bounds were set here for any values at or beyond the usual limits of such assays
condition_parameters: source organism: Burkholderia mallei
pKd: −log10 of the molar value.
readout_label: pKd

For RRSLLAHVR on HLA-B*48:01, measured pKd was ≤ 4.70

====

target_of_assay: HLA-A*24:03
procedure_text: IEDB peptide-MHC binding, purified MHC/direct/fluorescence; filed as Kd, often an IC50 or EC50 that approximates it; bounds were set here for any values at or beyond the usual limits of such assays
condition_parameters: source organism: Choclo virus
readout_label: Kd

Reported Kd ( GRFQEALKK ) = ≥ 20 µM

====

target_of_assay: HLA-B*83:01
procedure_text: IEDB peptide-MHC binding, purified MHC/competitive/fluorescence; filed as Kd, often an IC50 or EC50 that approximates it; bounds were set here for any values at or beyond the usual limits of such assays
condition_parameters: source organism: Homo sapiens
pKd: −log10 of the molar value.
readout_label: pKd

Sample SVDSDHLGY ; pKd observed: ≤ 5.30

====

target_of_assay: HLA-B*08:01
procedure_text: IEDB peptide-MHC binding, purified MHC/competitive/fluorescence; bounds were set here for any values at or beyond the usual limits of such assays
condition_parameters: source organism: Homo sapiens
readout_label: IC50 (µM)
Answers are plain numbers, in µM.

The recorded IC50 for FPHTELANL is 1.08

====

target_of_assay: HLA-B*51:01
procedure_text: IEDB peptide-MHC binding, purified MHC/competitive/fluorescence; filed as Kd, often an IC50 or EC50 that approximates it; bounds were set here for any values at or beyond the usual limits of such assays
condition_parameters: source organism: Entamoeba dispar SAW760
readout_label: Kd

Summary line: KDGTLFYCY , HLA-B*51:01, reported Kd = ≥ 20 µM

====

target_of_assay: HLA-A*02:16
procedure_text: IEDB peptide-MHC binding, purified MHC/competitive/fluorescence; filed as Kd, often an IC50 or EC50 that approximates it; bounds were set here for any values at or beyond the usual limits of such assays
condition_parameters: source organism: Coxiella burnetii 'MSU Goat Q177'
readout_label: Kd (nM)
Numbers only, in nM.

Test item AVDWYQQRI ; HLA-A*02:16; reported Kd was 360

====

target_of_assay: HLA-B*08:01
procedure_text: IEDB peptide-MHC binding, purified MHC/competitive/fluorescence; filed as Kd, often an IC50 or EC50 that approximates it; bounds were set here for any values at or beyond the usual limits of such assays
condition_parameters: source organism: Influenza A virus (A/duck/Hong Kong/3096/99(H6N2))
readout_label: pKd
Numbers only, as −log10 of the molar value.

Record TMLYNKMEF ; system HLA-B*08:01; pKd = 5.52

====

target_of_assay: HLA-B*40:01
procedure_text: IEDB peptide-MHC binding, purified MHC/competitive/fluorescence; filed as Kd, often an IC50 or EC50 that approximates it; bounds were set here for any values at or beyond the usual limits of such assays
condition_parameters: source organism: Influenza A virus
readout_label: pKd
Numbers only, as −log10 of the molar value.

Per the records, this sequence ( IEVTNATEL ) has pKd equal to 8.25

====

target_of_assay: HLA-B*57:01
procedure_text: IEDB peptide-MHC binding, purified MHC/direct/fluorescence; filed as Kd, often an IC50 or EC50 that approximates it; bounds were set here for any values at or beyond the usual limits of such assays
condition_parameters: source organism: Influenza A virus (A/Hong Kong/516/97(H5N1))
readout_label: Kd

Kd recorded for this sequence, SYINRTGTF , is ≥ 20 µM

====

Provide the recorded pKd for the entries that follow.
target_of_assay: HLA-A*68:02
procedure_text: IEDB peptide-MHC binding, purified MHC/direct/fluorescence; filed as Kd, often an IC50 or EC50 that approximates it; bounds were set here for any values at or beyond the usual limits of such assays
condition_parameters: source organism: Orthohantavirus sangassouense
pKd: −log10 of the molar value.

{"sequence_input": "MRNTIMASK", "pKd": "≤ 4.70"}

Attention now shifts to the item below.
Query SPGDNSAKF on HLA-A*68:02; pKd returned: ≤ 4.70

====

target_of_assay: HLA-A*69:01
procedure_text: IEDB peptide-MHC binding, purified MHC/direct/fluorescence; filed as Kd, often an IC50 or EC50 that approximates it; bounds were set here for any values at or beyond the usual limits of such assays
condition_parameters: source organism: Homo sapiens
readout_label: pKd
One number for each entry, as −log10 of the molar value.

// LPRWPPPQL : pKd value = 5.26

====

target_of_assay: HLA-A*02:01
procedure_text: IEDB peptide-MHC binding, purified MHC/competitive/fluorescence; filed as Kd, often an IC50 or EC50 that approximates it; bounds were set here for any values at or beyond the usual limits of such assays
condition_parameters: source organism: Vibrio parahaemolyticus RIMD 2210633
pKd: −log10 of the molar value.
readout_label: pKd

Value of pKd reported for the sequence GTVPTDNPF is ≤ 4.70

====

target_of_assay: HLA-A*30:01
procedure_text: IEDB peptide-MHC binding, purified MHC/competitive/radioactivity; filed as Kd, often an IC50 or EC50 that approximates it; bounds were set here for any values at or beyond the usual limits of such assays
condition_parameters: source organism: Mammarenavirus choriomeningitidis
readout_label: Kd (nM)
One number for each entry, in nM.

Item EIFSMMVSSF ; assay system HLA-A*30:01; Kd reported as 940

====

target_of_assay: HLA-B*45:06
procedure_text: IEDB peptide-MHC binding, purified MHC/competitive/fluorescence; filed as Kd, often an IC50 or EC50 that approximates it; bounds were set here for any values at or beyond the usual limits of such assays
condition_parameters: source organism: Human herpesvirus 4 strain B95-8
readout_label: Kd

According to the records, this sequence DEVEFLGHY displays Kd of ≥ 5 µM

====

target_of_assay: HLA-A*02:17
procedure_text: IEDB peptide-MHC binding, purified MHC/competitive/radioactivity; filed as Kd, often an IC50 or EC50 that approximates it; bounds were set here for any values at or beyond the usual limits of such assays
condition_parameters: source organism: Dengue virus 3 Singapore/8120/1995
readout_label: Kd

Data point: TLTAAVLLLV ; Kd = 219 nM

====

target_of_assay: HLA-B*58:01
procedure_text: IEDB peptide-MHC binding, purified MHC/direct/fluorescence; filed as Kd, often an IC50 or EC50 that approximates it; bounds were set here for any values at or beyond the usual limits of such assays
condition_parameters: source organism: Vibrio cholerae
readout_label: Kd

// sample MMFDAMGAL , its Kd was ≥ 20 µM

====

target_of_assay: HLA-B*18:01
procedure_text: IEDB peptide-MHC binding, purified MHC/competitive/fluorescence; filed as Kd, often an IC50 or EC50 that approximates it; bounds were set here for any values at or beyond the usual limits of such assays
condition_parameters: source organism: Choclo virus
readout_label: Kd

response.value for GRFQEALKK (field: Kd) = ≥ 20 µM

====

target_of_assay: HLA-A*24:02
procedure_text: IEDB peptide-MHC binding, purified MHC/competitive/fluorescence; filed as Kd, often an IC50 or EC50 that approximates it; bounds were set here for any values at or beyond the usual limits of such assays
condition_parameters: source organism: Salmonella enterica subsp. enterica serovar Typhi
readout_label: Kd

Briefly, Kd measured for IWGGTSFLF : ≤ 100 pM

====

target_of_assay: HLA-B*44:02
procedure_text: IEDB peptide-MHC binding, purified MHC/direct/fluorescence; filed as Kd, often an IC50 or EC50 that approximates it; bounds were set here for any values at or beyond the usual limits of such assays
condition_parameters: source organism: Escherichia coli O157:H7
Hi there, I'd appreciate the recorded Kd for every entry that follows.

{"sequence_input": "GMAEDLQSL", "Kd": "≥ 20 µM"}

Would you kindly look at the next entry?
Documented Kd of IRNPPMVVF : ≥ 20 µM

====

target_of_assay: HLA-A*33:01
procedure_text: IEDB peptide-MHC binding, purified MHC/competitive/radioactivity; filed as Kd, often an IC50 or EC50 that approximates it; bounds were set here for any values at or beyond the usual limits of such assays
condition_parameters: source organism: Dengue virus 1 Brazil/97-11/1997
readout_label: Kd

Below, each entry is followed by its recorded Kd result.
{"sequence_input": "DVISRRDQR", "Kd": "68.2 nM"}
{"sequence_input": "FVCRRTFVDR", "Kd": "65.2 nM"}
{"sequence_input": "YFWQKKKQR", "Kd": "98.2 nM"}

Now consider a different sequence.
Notebook: FFLMVLLIPE , Kd read as 208 nM
